- MEASUREMENT_DESCRIPTION: yeast display, Sf9 membrane polyspecificity reagent, FACS + sequencing; frameworks hold sequencing errors
VALUE_TYPE: polyreactivity (PSR sort gate)

Please review the following examples before continuing.
SEQUENCE_CONTENT	VALUE_TYPE	EXPERIMENTAL_VALUE
QVQLVESGGGLVQAGGSLRLSCAGSGSTFDGNAMGWYRQAPGKDRELVAAITSGGSTNYADSVKGRFTISRDNAKNTVYLQMNSLKPEDTAVYYCAADTVSFSILYDYWGQGTQVTVSS	polyreactivity (PSR sort gate)	low polyreactivity
QVQLVESGGGLVQAGGSLRLSCAASGSTFNIYVMGWYRQAPGKERELVAAISTSGRTYYADSVKGRFTISRDNAKNTVYLQMNSLKPEDTAVYYCNAGYWVRKYYHGGYWGQGTQVTVSS	polyreactivity (PSR sort gate)	high polyreactivity
QVQLVESGGGLVQAGGSLRLSCAASGFTFITYAMGGHRQAPGKERELVAAIRTGGGTNYADSVKGRFTISRDNAKNTVYLQMNSLKPEDTAVYYCAKGRQGVSYLTGTYGCRYYWGQGTQVTVSS	polyreactivity (PSR sort gate)	low polyreactivity
QVQLVESGGGLVQAGGSLRLSCAASGRIFGYYAMGWYRQAPGQERELVAAITRNGGSTYYADSVKGRFTISRDNAKNTVYLQMTSLKPEDTAVYYCAATKGGGRGYWGQGTQVTVSS	polyreactivity (PSR sort gate)	high polyreactivity
QVQLQESGGGLVLAGGSLRLSCSASGNISVYGSMGWYRQSPGKEREFVATIDPGTNTNYADSVKDRFTISRDYAKNSVYLQMNSLKPEDTAVYYCAVEAGSDWPYRYWGQGTQVTVSS	polyreactivity (PSR sort gate)	low polyreactivity

Give polyreactivity (PSR sort gate) for all sequences that follow.
1. QVQLVESAGGLVQAGGSLSLSCAANGFTFTYYTMGWYRQAPGKERELVAAITENGGSTYYADSVKGRFTISRDNAKNTVYLQMNSLKPEDTAVYYCNARVWDYGGHGYDYWGQGTQVTVSS
2. QVQLVESGGGLVQAGGSLRLSCAASGSTLIRNDMGWYRQAPAKERELVAAINTRGTTTYYADSVKGRFTISRDNAKNTVYLQMNSLKPEDTAVYYCAAYAYSAYSPDGQRSRYYYWGQGTQVTVSS
3. QDQLVESGGGLVQAGGSHRLSCAASGSTFLGNTMGWYRQAPRKERELVAAISSSGTSTYYADSVKGRFTISRDNAKNTVYLQMNSLKPEDTAVYYCAAVIRVWWGFGDKYDYWGQGTQVTVAS
4. QVQLVESGGGLVQAGGSLRLSCAASGSTFTYYAMGWYRQAPGKERELVAAIDFSGTSTYYADSVKGRFTISRDNAKNTVYLQMNSLQPEDTAVYYCAASQSWYWGGAQDNGEFGYWGQGTQVTVSS

Output line:
1. low polyreactivity
2. high polyreactivity
3. high polyreactivity
4. low polyreactivity

Give polyreactivity (PSR sort gate) for all sequences that follow.
1. QVQLVESGGGLVQAGGSGRLSCAASGSIFFAYGMGWYRQATGTERELVAAIPNSGTSTYYADSVKGRFTISRDNAKNSDYLQMNSLKPEDTAVFYCARDNEPDYYSYPYDYWGEGTQVTVSS
2. QVQLVESGGGLVQAGGSLRLSCAASGRIFAYYAMGWYRQAPGKERELVAAINTSGATTNYADSVKGRFTISRDKAKNTVYLQMNSLKPEDTAVYYCAAWKGVYTYNYWGQGTQVTVSS

Output line:
["low polyreactivity", "high polyreactivity"]

----------
- MEASUREMENT_DESCRIPTION: yeast display, Sf9 membrane polyspecificity reagent, FACS + sequencing; frameworks hold sequencing errors
VALUE_TYPE: polyreactivity (PSR sort gate)

Please review the following examples before continuing.
SEQUENCE_CONTENT	EXPERIMENTAL_VALUE
QVQLVESGGCLVQAGGRLRLSCAASGSTFGRNAMGWYRQAPGKERELVAAISTSDGRTYYADSVKGRFTISRDNAKNTVYLQMNSLKPEDTAVYYCAADGETLPPRILGESEGDYWGQGTQVTVSS	low polyreactivity
QVQLVESGGGLVQAGGSLRLSCAASGSIFNYYAMGWYRQAPGKERELVAAITSSDGRTFYADSVKGRFTISRDNAKNKVYLQMNSLKPEDTAFYYCAAEWTSRYSTYEYWGQGTQVTVSS	low polyreactivity
QVQLVESGGGLVQAGGSLRLSCAASGLTFRRNAMGWYRQAPGKERELVAAITARGTSTYYADSVKGRFSISRDNAKNTVYLQMNSLKPEDTAVYYCNVRWHRTRSEYDYWGQGTQVTVSS	high polyreactivity
QVQLVESGGGLVQAGRSLRLSCAASGFIYPYNALGWYRQAPGKERELVAGITWRGASTYYADSVKGRFTISRDNAKNSVYLQMNRLKPEDTAVDYCAAAYRRVTTKTFKLDYWGQGTQVTVSS	high polyreactivity
QVHLVESGGGLVQAGGSLRLICAASGSIFPRNAMGWYRQAPGKERELVARINSGGTTKYADSVKGRFTISRDNAKNTVFLQMNSLKPEDTAVYYCNADTYILDPLRKSYGYDYWGQGTQVTVSS	low polyreactivity

Give polyreactivity (PSR sort gate) for all sequences that follow.
1. QVQLVESGGGLVQAGGSLRLSCAASGSTFRHYAMGWYRQAPGKERELVAAISSRGGSTYYADSVKGRFTISRDNAKNTVYLQMNSLKPEDTAVYYCNVVGYQRPSYRHMDYWGQGTQVTVSS
2. QVQLVESGGGLVQAGGSLRLSCAASGGIFDRYAMGWYRQAPGKERELVAAITSGGSTNYADSVKGRFTISRDNAKNTVYLQMNSLKPEDTAVYYCNADLGILSGVAEGPTFREYDYWGQGTQVTVSS
3. QVQLVESGGGLVQAGGSLRLSCAASGSTLSKYAMGWYRQAPGKEREFVAAISRSGGSTYYADSVKGRFTISRDKAKNTVYLQMNSLKPEDTAVYYCAKVLRTFSGLYYWGQGTQVTVSS

Output line:
1: high polyreactivity; 2: low polyreactivity; 3: high polyreactivity

Give polyreactivity (PSR sort gate) for all sequences that follow.
1. QVQLVDSAVGLVQAGGSLRLSCPASGSIISFYTMGWYRQAPGKERDLVASSTTYADSVKGRFTISRDNAKNTVYLQMNSLKPEVTAVYYCATRHPARRDYWGQGTQVTVSS
2. QVQLVESGGGFVQAGGRLRLSCAASGRTFKYYAMGWYRPAPGKDRELVAAISRGGSTNYADSVKGRFTISRDNAKNTVYLQLTSLNPEDTAVYYCAADQVTDYWWRGYEYWGQGTQVTVSS

Output line:
["low polyreactivity", "low polyreactivity"]

Input line: Output measured polyreactivity (PSR sort gate) for this item: QVQLVESGGGLVQAGGSLRLSCAASGRTFRLNVMGWYRQAPGKERELVATISWSGGTTYYADSVKGRFTISRDNAKNTVYFQMNCLKPEDTAVYYCNRQVTWYPTGGYWGQGTQVTVSS
Output line: low polyreactivity

----------
- MEASUREMENT_DESCRIPTION: yeast display, Sf9 membrane polyspecificity reagent, FACS + sequencing; frameworks hold sequencing errors
VALUE_TYPE: polyreactivity (PSR sort gate)

SEQUENCE_CONTENT	polyreactivity (PSR sort gate)
QVQLVESGGGLVQAGGSLRISCAASGRIFYVYAMGWYRQAPGKERELVAAITSGGSTYYADSVKGRFTISRDNAKNTVYLQMNSLKPEDTAVYYCAAYNRGRFRPYRFEYWGQGTQVTVSS	high polyreactivity
QVQLVESGGRIVQAGGSLRLRCAASGSTFHRYAMGRYRQAPGKERELVAAISRSGGSTYYADSVKGRFTISRDTAKNTVYLLMNSLKPVDTAVYYCAADRTGHGFGYWGQGTQVTVSS	high polyreactivity
QVQLVESGGGLVQAGGSLRLSCAASGSIFGLYAMGWYRQAPGKERELVATITSGTNTYYADSVKGRFTISRDNAKNTVYLQMNSLKAEDTAVYYCAKSYIAWDGRTFEEMNYWGQGTLVTVSS	low polyreactivity
QDQLVESGGGLVQAGGSLRLSCAAYGSTFERYVMGWYRQAPGKDRELVADINSGGSTNYADSVKGRFTISRDNAKNTVYLQMNSLKPEDTAVYYCAKDGWGGWWFPYRVKYGYWGQGSQVTVSS	low polyreactivity
QVQLVESGGGLVQAGGSLRLSCAASGRIFDGNAMGWYRQAPWKERELVAAINRSGGRTYYADSVKGRFTISRDNAKNTVYLQMNSLKPEDTAVYYCATPYAGGTPADPGYDYWGQGTQVTVSS	high polyreactivity

Give polyreactivity (PSR sort gate) for all sequences that follow.
1. QVQLVESGGGLVQAGGSLRLSCAASGSTFIDYAMGWYRQAHGKERELVAGISSGDSTDYADSVKGRFTISRDNAKNTVYLQMNSLKPEDTAVYYCNADWNPTERWFYWYTPLGYDYWGQGTQVTVSS
2. QVQHVESGGGLVQAGGSLRLSCAASGFIFAANAMGWYRQGPGKERELVAAINYRGSSTYYADSVKGRFTISRDNAKNTVNLQMNSLKPEDTAVYYCAARSGAQRGGGYWGQGTQVTVSS
3. QVQLVESGGGLVQAGGSLRLSCAASGSTFTTNAMGWYRQAPGKERELVATISRGGSTYYADSVKGRFTISRDNAKNTVYIQMNRLKPEDTAVYYCATDVQVPGIGRSVYAYEYWGQVTQVTVSS
4. QVQLVESGGGLVQAGGSLRLSCAASGSPFKRYAMGWYRQAPGKERELVASITRRGGSTYYADSVKGRFTISRDNAKNTVYLKMNSLKPEDSAVYYCAALQGRSSARQDSYGYWGQGTQVTVSS
5. QVQLVESGGGLVQAGGSLRLSCAASGRIFRWYAMGWYRQAPGKERELVATISSSGRTNYADSVKGRFTISRDNAKNTVYLQMNSLKPEDTAVYYCNADGGDWFGYVGMDYWGQGTQVTVSS
6. QVHLVESGGGLVEAVGSLRLSCAASGRIFARYAMGCYRQAPGKERQLVATITRVGSTNYADSVKRPFTISRDNAKTTVYLQMNSLKPEDTEGFYCNADIRRNGGYAHEYWVQGTQVTVSS

Output line:
1. low polyreactivity
2. high polyreactivity
3. low polyreactivity
4. high polyreactivity
5. high polyreactivity
6. low polyreactivity
